I'd be grateful if you could share measured IC50 for these entries.
- Assay Target: recombinant human MAO-A (Homo sapiens, UniProt P21397)
- Sequence (P21397 whole entry): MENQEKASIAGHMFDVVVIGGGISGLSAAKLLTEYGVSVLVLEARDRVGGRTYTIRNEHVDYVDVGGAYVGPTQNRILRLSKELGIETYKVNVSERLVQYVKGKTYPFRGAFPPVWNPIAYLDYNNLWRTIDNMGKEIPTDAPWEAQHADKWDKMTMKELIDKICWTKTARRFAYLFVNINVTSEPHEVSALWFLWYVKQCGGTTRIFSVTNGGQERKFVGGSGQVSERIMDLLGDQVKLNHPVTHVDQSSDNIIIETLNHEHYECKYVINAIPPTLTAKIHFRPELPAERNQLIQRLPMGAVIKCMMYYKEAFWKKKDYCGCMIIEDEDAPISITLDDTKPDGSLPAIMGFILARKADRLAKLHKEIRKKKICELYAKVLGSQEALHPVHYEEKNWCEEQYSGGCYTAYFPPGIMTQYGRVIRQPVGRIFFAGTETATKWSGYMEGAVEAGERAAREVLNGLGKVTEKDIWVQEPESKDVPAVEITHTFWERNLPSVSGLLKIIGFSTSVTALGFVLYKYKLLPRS
- Test Method Notes: Inhibition of human recombinant MAO-A
- Applied Conditions: incubation time of 2 hours, tyramine 100 μM

Please review the following examples before continuing.
N#Cc1ccc(OC/C(=C\F)CN)cc1 0.3 to 3 µM
NC/C(=C\F)COc1ccccc1 0.3 to 3 µM
CS(=O)(=O)c1ccc(OC/C(=C/F)CN)cc1 > 30 µM

# input for lookup
Give recorded IC50 with recombinant human MAO-A (Homo sapiens, UniProt P21397) for the following compound: "NC/C(=C\F)COc1ccc(C(F)(F)F)cc1"
3 to 30 µM
